molecular target: ERbeta Receptor (Homo sapiens); construct: purchased Pan Vera; experiment: Competition ER binding assay (3H-Estradiol), ER beta; conditions: ratio of Ki ER alpha to Ki ER beta; Ki from IC50 by Cheng-Prusoff equation
Sequence (Q92731 whole entry): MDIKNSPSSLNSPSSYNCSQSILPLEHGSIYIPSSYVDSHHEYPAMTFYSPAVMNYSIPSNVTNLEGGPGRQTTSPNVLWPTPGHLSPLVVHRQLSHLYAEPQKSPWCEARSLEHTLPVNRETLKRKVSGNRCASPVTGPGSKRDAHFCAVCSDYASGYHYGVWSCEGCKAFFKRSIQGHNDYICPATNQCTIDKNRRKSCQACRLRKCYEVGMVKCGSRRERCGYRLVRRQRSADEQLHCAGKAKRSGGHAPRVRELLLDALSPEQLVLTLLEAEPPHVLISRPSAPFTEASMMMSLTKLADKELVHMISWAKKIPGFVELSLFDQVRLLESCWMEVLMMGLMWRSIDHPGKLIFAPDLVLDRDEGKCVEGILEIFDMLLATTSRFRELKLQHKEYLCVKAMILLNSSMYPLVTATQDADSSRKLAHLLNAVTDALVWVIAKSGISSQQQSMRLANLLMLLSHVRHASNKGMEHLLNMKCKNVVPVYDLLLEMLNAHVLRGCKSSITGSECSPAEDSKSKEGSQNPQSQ
MEASURED_ENDPOINT: Ki (nM) ER alpha/Ki (nM) ER beta

Worked cases, answers included:
In [3]: df
Out[3]:
                                   compound  reported
0  Cc1cc(O)cc2c1O[C@H](c1ccc(O)cc1)[C@@H]1CCC[C@H]21 (racemic)       5.1
1  Cc1cc([C@H]2Oc3ccc(O)cc3[C@H]3CCC[C@H]32)ccc1O (racemic)       4.4
2  Oc1ccc([C@H]2Oc3ccc(F)cc3[C@H]3CCC[C@H]32)cc1 (racemic)       4.7
3  Oc1ccc([C@H]2Oc3ccc(O)cc3[C@H]3CCC[C@H]32)cc1 (racemic)       8.0
4  Cc1ccc2c(c1)[C@H]1CCC[C@H]1[C@@H](c1ccc(O)cc1)O2 (racemic)       1.2
5  COc1cc(O)cc2c1O[C@H](c1ccc(O)cc1)[C@@H]1CCC[C@H]21 (racemic)        13
6  Cc1cc2c(cc1O)[C@H]1CCC[C@H]1[C@H](c1ccc(O)cc1)O2 (racemic)       0.6
7  Cc1cc2c(cc1O)[C@H]1CCC[C@H]1[C@@H](c1ccc(O)cc1)O2 (racemic)       2.0

(I) Cc1cc([C@@H]2Oc3ccc(O)cc3[C@H]3CCC[C@H]32)ccc1O (racemic)
(II) Oc1ccc([C@H]2Oc3ccc(C(F)(F)F)cc3[C@H]3CCC[C@H]32)cc1 (racemic)
(III) C[C@]1(c2ccc(O)cc2)Oc2ccc(O)cc2[C@@H]2CCC[C@@H]21
Exercise: Place the items in sequence of falling Ki (nM) ER alpha/Ki (nM) ER beta. Output spec: labels arranged per the requested ranking.
Solution: III, I, II
(III: 4.6, I: 2.6, II: 1.4)

(A) CCC1(CC)CC[C@H]2[C@@H](c3ccc(O)cc3)Oc3ccc(O)cc3[C@H]21 (racemic)
(B) COc1ccc2c(c1)[C@H]1CCC[C@H]1[C@@H](c1ccc(O)cc1)O2 (racemic)
Exercise: Compare reported Ki (nM) ER alpha/Ki (nM) ER beta values for A and B . Which is lower? Bench note: the answer is the label of the chosen record.
Solution: A
(A: 1.6, B: 2.3)

---

biological target: ERbeta Receptor (Homo sapiens); construct: purchased Pan Vera; test: Competition ER binding assay (3H-Estradiol), ER beta; conditions: ratio of Ki ER alpha to Ki ER beta; Ki from IC50 by Cheng-Prusoff equation
MEASURED_ENDPOINT: Ki (nM) ER alpha/Ki (nM) ER beta

Worked cases, answers included:
In [3]: df
Out[3]:
                                   molecule  reported
0  CC1(C)CC[C@H]2[C@@H](c3ccc(O)cc3)Oc3ccc(O)cc3[C@H]21 (racemic)       2.5
1  CC(C)[C@]1(c2ccc(O)cc2)Oc2ccc(O)cc2[C@@H]2CCC[C@@H]21       1.4

(P) CC[C@]1(c2ccc(O)cc2)Oc2ccc(O)cc2[C@@H]2CCC[C@@H]21
(Q) Cc1cc(O)ccc1[C@H]1Oc2ccc(O)cc2[C@H]2CCC[C@H]21 (racemic)
Exercise: Between these two entries, P and Q , state which has the higher Ki (nM) ER alpha/Ki (nM) ER beta. Bench note: the answer is the label of the chosen record.
Solution: Q

Data provenance is patent US7217734B2.
